Target: UniProt:P43405
reported-metric: IC50 (nM)

[
  {
    "compound": "COc1cc(Nc2nc(-c3ccc4c(c3)NCCO4)cn3ccnc23)ccc1N1CC[C@@H](N)C1 [Compound 9]",
    "measure-unit": "nM",
    "IC50": 6
  },
  {
    "compound": "COc1cc(Nc2nc(-c3cnc4c(c3)NCCO4)cn3ccnc23)ccc1N1CCOCC1 [Compound 1]",
    "measure-unit": "nM",
    "IC50": 3
  },
  {
    "compound": "COc1cc(Nc2nc(-c3cnc4c(c3)NCCO4)cn3ccnc23)ccc1N1CCN(CC2(C)COC2)CC1 [Compound 28]",
    "measure-unit": "nM",
    "IC50": 4
  },
  {
    "compound": "C[C@H](O)[C@H]1CN(c2ccc(Nc3nc(-c4cnc5c(c4)NCCO5)cn4ccnc34)cc2)CCO1 [Compound 5]",
    "measure-unit": "nM",
    "IC50": 6
  },
  {
    "compound": "COc1cc(Nc2nc(-c3cnc4c(c3)NCCO4)cn3ccnc23)ccc1N1CCC(=O)CC1 [Compound 104]",
    "measure-unit": "nM",
    "IC50": 4
  }
]

[a] CC(=O)N1CCN(c2ccc(Nc3nc(-c4cnc5c(c4)NCCO5)cn4ccnc34)cc2)CC1 [Compound 34]
[b] OC1(c2ccc(Nc3nc(-c4cnc5c(c4)NCCO5)cn4ccnc34)cc2)CCC1 [Compound 101]
[c] COc1cc(Nc2nc(-c3cnc4c(c3)N(C)C(=O)CO4)cn3ccnc23)ccc1N1CCOCC1 [Compound 60]
Query :: # sort list by recorded IC50, greatest to least Please respond with the labels ordered as the question requires.
Result :: c, b, a
(c: 39 nM, b: 7 nM, a: 4 nM)
